# target_or_test_system: T1, ActRIIB-Fc homodimer (human, UniProt Q13705 19-137)
# T1 construct: extracellular domain; also called unmodified ActRIIB-Fc homodimer; ActRIIB-Fc:ActRIIB-Fc homodimer
# T1 sequence (looked up): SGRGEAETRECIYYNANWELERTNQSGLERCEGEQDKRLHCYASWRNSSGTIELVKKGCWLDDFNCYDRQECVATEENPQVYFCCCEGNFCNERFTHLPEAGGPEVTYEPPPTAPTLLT
# measurement_protocol: SPR (Biacore), anti-Fc capture, ligand in flow
quantity_measured: pKd
By convention, pKd is the negative base-10 log of a molar concentration.

# get_value(readout='pKd', item= activin B (ligand, UniProt P09529 293-407, looked up) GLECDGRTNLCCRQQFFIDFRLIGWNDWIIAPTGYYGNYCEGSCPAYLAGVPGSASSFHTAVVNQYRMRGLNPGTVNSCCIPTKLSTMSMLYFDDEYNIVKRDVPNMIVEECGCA ) 11.10

# get_value(readout='pKd', item= GDF11 (ligand, UniProt O95390 299-407, looked up, also called BMP11) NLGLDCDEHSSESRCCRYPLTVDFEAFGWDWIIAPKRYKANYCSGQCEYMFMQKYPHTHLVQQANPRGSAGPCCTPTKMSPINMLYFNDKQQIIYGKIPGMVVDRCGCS ) 11.70
